Values were extracted from ChEMBL document CHEMBL1687700.

- assay.notes: Permeability of the compound by PAMPA assay at pH 5.0
- Type: ADME
- measurement.context: read-out: permeability

compound.string: Nc1ncnn2c1c(-c1ccc3ccc(-c4ccccc4)nc3c1F)nc2[C@H]1C[C@@H](N2CCN(C=O)CC2)C1
Papp / ×10⁻⁶ cm/s: 20.4

compound.string: C[C@]1(O)C[C@@H](c2nc(-c3ccc4ccc(-c5ccccc5)nc4c3F)c3c(N)ncnn32)C1
Papp / ×10⁻⁶ cm/s: 109

compound.string: CN1CCN([C@H]2C[C@@H](c3nc(-c4ccc5ccc(-c6ccccc6)nc5c4F)c4c(N)ncnn43)C2)CC1
Papp / ×10⁻⁶ cm/s: 14.5

----------
- assayed.system: Cytochrome P450 2D6 (Homo sapiens)
- Sequence (P10635 whole entry): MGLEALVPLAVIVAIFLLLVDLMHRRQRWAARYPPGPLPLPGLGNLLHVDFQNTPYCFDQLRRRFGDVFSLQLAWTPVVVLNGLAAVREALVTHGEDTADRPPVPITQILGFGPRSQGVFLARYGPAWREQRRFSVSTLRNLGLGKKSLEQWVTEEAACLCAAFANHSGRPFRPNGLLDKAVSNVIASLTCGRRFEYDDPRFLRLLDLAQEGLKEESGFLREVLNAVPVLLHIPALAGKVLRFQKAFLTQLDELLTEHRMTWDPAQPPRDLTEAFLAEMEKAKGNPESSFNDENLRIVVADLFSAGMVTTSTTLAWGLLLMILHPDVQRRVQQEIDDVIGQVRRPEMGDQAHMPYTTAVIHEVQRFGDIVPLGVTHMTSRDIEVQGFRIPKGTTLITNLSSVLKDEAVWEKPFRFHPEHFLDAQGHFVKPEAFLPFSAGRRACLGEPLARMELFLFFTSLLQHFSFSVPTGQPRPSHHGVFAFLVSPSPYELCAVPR
pIC50: −log10 of the molar value.
endpoint.label: pIC50

compound.string: C[C@]1(O)C[C@@H](c2nc(-c3ccc4ccc(-c5ccccc5)nc4c3F)c3c(N)ncnn32)C1
assayed.system: Cytochrome P450 2D6 (Homo sapiens)
observed.value: < 4.60

----------
- assay.notes: AUC in CD-1 mouse at 25 mg/kg, po administered as single dose
- Format: ADME, organism-based
- Set-up: dose 25 mg/kg, route oral
- measurement.context: plasma
endpoint.label: AUC (µg·h/mL)

compound.string: C[C@]1(O)C[C@@H](c2nc(-c3ccc4ccc(-c5ccccc5)nc4c3F)c3c(N)ncnn32)C1.Cl
endpoint.label: AUC
observed.value: 240

----------
- assay.notes: AUC in rhesus monkey at 30 mg/kg, po administered as single dose
- Assay type: ADME, organism-based, Macaca mulatta
- Parameters: dose 30 mg/kg, route oral
- measurement.context: plasma

compound.string: C[C@]1(O)C[C@@H](c2nc(-c3ccc4ccc(-c5ccccc5)nc4c3F)c3c(N)ncnn32)C1.Cl
AUC: 31400 ng·h/mL

----------
- assay.notes: Clearance in CD-1 mouse at 5 mg/kg, iv administered as single dose
- Assay type: ADME, organism-based
- Design: dose 5 mg/kg, route intravenous
- measurement.context: in vivo
Here, each record is paired with measured clearance data.

compound.string: C[C@]1(O)C[C@@H](c2nc(-c3ccc4ccc(-c5ccccc5)nc4c3F)c3c(N)ncnn32)C1
unit.name: mL/min/kg
clearance: 4
--
compound.string: Nc1ncnn2c1c(-c1ccc3ccc(-c4ccccc4)nc3c1F)nc2[C@H]1C[C@@H](N2CCN(C=O)CC2)C1
unit.name: mL/min/kg
clearance: 7
--
compound.string: CN1CCN([C@H]2C[C@@H](c3nc(-c4ccc5ccc(-c6ccccc6)nc5c4F)c4c(N)ncnn43)C2)CC1
unit.name: mL/min/kg
clearance: 21

----------
- assay.notes: Cmax in Sprague-Dawley rat at 25 mg/kg, po administered as single dose
- Type: ADME, organism-based
- Set-up: dose 25 mg/kg, route oral
- measurement.context: in vivo

compound.string: C[C@]1(O)C[C@@H](c2nc(-c3ccc4ccc(-c5ccccc5)nc4c3F)c3c(N)ncnn32)C1
Cmax (µM): 11.3

----------
- assay.notes: Plasma protein binding in rat
- Assay type: ADME, cell-free
- measurement.context: read-out: PPB (converted)

compound.string: C[C@]1(O)C[C@@H](c2nc(-c3ccc4ccc(-c5ccccc5)nc4c3F)c3c(N)ncnn32)C1.Cl
fraction unbound: 0.034

----------
Target protein (sequence): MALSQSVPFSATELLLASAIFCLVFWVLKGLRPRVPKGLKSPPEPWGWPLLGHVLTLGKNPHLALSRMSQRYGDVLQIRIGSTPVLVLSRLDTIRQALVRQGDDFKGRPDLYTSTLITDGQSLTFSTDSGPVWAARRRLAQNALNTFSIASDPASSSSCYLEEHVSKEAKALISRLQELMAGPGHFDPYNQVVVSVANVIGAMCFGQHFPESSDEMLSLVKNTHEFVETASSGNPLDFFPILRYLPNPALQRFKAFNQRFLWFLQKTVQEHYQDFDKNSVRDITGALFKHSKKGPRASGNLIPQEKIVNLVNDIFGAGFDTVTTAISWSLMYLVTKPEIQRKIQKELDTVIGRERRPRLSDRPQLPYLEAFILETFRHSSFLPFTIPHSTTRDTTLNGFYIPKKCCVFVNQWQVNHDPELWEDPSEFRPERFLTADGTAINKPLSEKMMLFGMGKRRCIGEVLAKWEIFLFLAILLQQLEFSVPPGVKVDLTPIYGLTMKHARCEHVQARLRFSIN
endpoint.label: IC50

compound.string: C[C@]1(O)C[C@@H](c2nc(-c3ccc4ccc(-c5ccccc5)nc4c3F)c3c(N)ncnn32)C1
endpoint.label: IC50
observed.value: > 25 µM

----------
- assay.notes: Cmax in CD-1 mouse at 25 mg/kg, po administered as single dose
- Format: ADME, organism-based
- Design: dose 25 mg/kg, route oral
- measurement.context: in vivo
endpoint.label: Cmax (µM)

compound.string: C[C@]1(O)C[C@@H](c2nc(-c3ccc4ccc(-c5ccccc5)nc4c3F)c3c(N)ncnn32)C1.Cl
endpoint.label: Cmax
observed.value: 35.2

----------
- assay.notes: Plasma protein binding in human
- Type: ADME, cell-free
- measurement.context: read-out: PPB (converted)

compound.string: C[C@]1(O)C[C@@H](c2nc(-c3ccc4ccc(-c5ccccc5)nc4c3F)c3c(N)ncnn32)C1.Cl
fraction unbound: 0.027

----------
- assayed.system: Insulin receptor (Homo sapiens, UniProt P06213)
- Sequence (P06213 28-758 limits assumed): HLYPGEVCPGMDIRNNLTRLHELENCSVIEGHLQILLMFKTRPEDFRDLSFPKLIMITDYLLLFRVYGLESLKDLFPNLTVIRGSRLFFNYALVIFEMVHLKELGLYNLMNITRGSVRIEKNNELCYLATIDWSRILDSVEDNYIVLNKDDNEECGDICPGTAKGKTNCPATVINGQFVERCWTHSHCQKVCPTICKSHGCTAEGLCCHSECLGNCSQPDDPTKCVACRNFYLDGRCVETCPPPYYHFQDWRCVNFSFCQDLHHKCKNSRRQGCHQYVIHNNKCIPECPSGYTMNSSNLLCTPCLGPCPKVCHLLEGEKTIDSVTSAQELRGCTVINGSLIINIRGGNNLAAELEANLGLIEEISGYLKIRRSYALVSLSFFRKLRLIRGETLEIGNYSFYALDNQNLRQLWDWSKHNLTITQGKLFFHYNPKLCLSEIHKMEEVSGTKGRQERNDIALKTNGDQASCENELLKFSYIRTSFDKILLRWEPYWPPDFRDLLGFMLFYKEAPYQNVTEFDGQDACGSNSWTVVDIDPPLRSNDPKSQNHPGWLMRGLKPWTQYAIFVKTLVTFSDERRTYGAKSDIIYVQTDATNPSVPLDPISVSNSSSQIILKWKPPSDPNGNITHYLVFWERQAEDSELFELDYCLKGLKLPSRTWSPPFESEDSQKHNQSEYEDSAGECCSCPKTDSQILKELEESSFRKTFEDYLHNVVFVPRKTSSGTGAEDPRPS
- Sequence (P06213 763-1382 limits assumed): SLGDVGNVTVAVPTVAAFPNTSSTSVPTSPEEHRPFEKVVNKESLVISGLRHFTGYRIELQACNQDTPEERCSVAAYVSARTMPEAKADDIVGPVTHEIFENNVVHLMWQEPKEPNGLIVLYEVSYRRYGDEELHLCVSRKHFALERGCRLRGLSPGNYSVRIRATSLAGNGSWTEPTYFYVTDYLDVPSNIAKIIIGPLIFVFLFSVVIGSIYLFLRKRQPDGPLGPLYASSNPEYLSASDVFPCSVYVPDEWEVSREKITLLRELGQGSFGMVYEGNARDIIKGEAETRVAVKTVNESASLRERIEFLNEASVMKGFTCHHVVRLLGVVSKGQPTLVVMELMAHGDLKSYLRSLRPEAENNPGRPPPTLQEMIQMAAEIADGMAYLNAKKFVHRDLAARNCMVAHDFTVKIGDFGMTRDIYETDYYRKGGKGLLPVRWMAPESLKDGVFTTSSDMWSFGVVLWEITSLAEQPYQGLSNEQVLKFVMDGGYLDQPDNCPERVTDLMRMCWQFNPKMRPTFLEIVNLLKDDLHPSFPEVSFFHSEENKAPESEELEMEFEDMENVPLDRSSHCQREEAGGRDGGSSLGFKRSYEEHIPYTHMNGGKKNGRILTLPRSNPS
- assay.notes: Inhibition of auto-phosphorylation of human IR expressed in human HepG2 cells after 2 hrs by luminometry

compound.string: C[C@]1(O)C[C@@H](c2nc(-c3ccc4ccc(-c5ccccc5)nc4c3F)c3c(N)ncnn32)C1
IC50, µM: 0.076

----------
- assay.notes: Extraction ratio of hepatic clearance to hepatic blood flow in human microsomes
- Format: ADME, Microsome
- measurement.context: liver microsomes
endpoint.label: hepatic extraction ratio

compound.string: C[C@]1(O)C[C@@H](c2nc(-c3ccc4ccc(-c5ccccc5)nc4c3F)c3c(N)ncnn32)C1
endpoint.label: hepatic extraction ratio
observed.value: 0.55

----------
- assay.notes: Volume of distribution at steady state in rhesus monkey at 5 mg/kg, iv administered as single dose
- Assay type: ADME, organism-based, Macaca mulatta
- Set-up: dose 5 mg/kg, route intravenous
- measurement.context: in vivo, read-out: Vdss

compound.string: C[C@]1(O)C[C@@H](c2nc(-c3ccc4ccc(-c5ccccc5)nc4c3F)c3c(N)ncnn32)C1.Cl
Vd: 0.55 L/kg

----------
- assay.notes: Plasma protein binding in mouse
- Type: ADME, cell-free
- measurement.context: read-out: PPB (converted)
endpoint.label: fraction unbound

compound.string: C[C@]1(O)C[C@@H](c2nc(-c3ccc4ccc(-c5ccccc5)nc4c3F)c3c(N)ncnn32)C1.Cl
endpoint.label: fraction unbound
observed.value: 0.015

----------
- assay.notes: Clearance in rhesus monkey at 5 mg/kg, iv administered as single dose
- Type: ADME, organism-based, Macaca mulatta
- Design: dose 5 mg/kg, route intravenous
- measurement.context: in vivo

compound.string: C[C@]1(O)C[C@@H](c2nc(-c3ccc4ccc(-c5ccccc5)nc4c3F)c3c(N)ncnn32)C1.Cl
clearance: 15 mL/min/kg

----------
- assay.notes: Plasma concentration in human GEO cells xenografted CD-1 nu/nu mouse at 10 mg/kg, po administered as single dose in 40% Trappsol after 16 hrs
- Assay type: ADME, organism-based
- Design: dose 10 mg/kg, route oral
endpoint.label: concentration at 16 h (nM)

compound.string: C[C@]1(O)C[C@@H](c2nc(-c3ccc4ccc(-c5ccccc5)nc4c3F)c3c(N)ncnn32)C1.Cl
endpoint.label: concentration at 16 h
observed.value: 380

----------
- assay.notes: Oral bioavailability in Sprague-Dawley rat at 25 mg/kg administered as single dose
- Assay type: ADME, organism-based
- measurement.context: in vivo

compound.string: C[C@]1(O)C[C@@H](c2nc(-c3ccc4ccc(-c5ccccc5)nc4c3F)c3c(N)ncnn32)C1
bioavailability / %: 64

----------
- assay.notes: Oral bioavailability in CD-1 mouse at 25 mg/kg administered as single dose
- Format: ADME, organism-based
- measurement.context: in vivo
endpoint.label: bioavailability (%)

compound.string: C[C@]1(O)C[C@@H](c2nc(-c3ccc4ccc(-c5ccccc5)nc4c3F)c3c(N)ncnn32)C1.Cl
unit.name: %
observed.value: 100

----------
- assay.notes: Volume of distribution at steady state in CD-1 mouse at 5 mg/kg, iv administered as single dose
- Format: ADME, organism-based
- Design: dose 5 mg/kg, route intravenous
- measurement.context: in vivo, read-out: Vdss
endpoint.label: Vd (L/kg)

compound.string: CN1CCN([C@H]2C[C@@H](c3nc(-c4ccc5ccc(-c6ccccc6)nc5c4F)c4c(N)ncnn43)C2)CC1
unit.name: L/kg
observed.value: 4.9
--
compound.string: Nc1ncnn2c1c(-c1ccc3ccc(-c4ccccc4)nc3c1F)nc2[C@H]1C[C@@H](N2CCN(C=O)CC2)C1
unit.name: L/kg
observed.value: 1.2
--
compound.string: C[C@]1(O)C[C@@H](c2nc(-c3ccc4ccc(-c5ccccc5)nc4c3F)c3c(N)ncnn32)C1
unit.name: L/kg
observed.value: 1
